Assay: Induction of necrosis in human HeLa cells after 30 mins by resazurin assay
Assay type: cell-based
Details: read-out: LC50
Readout Name: CC50 at 0.5 h (µM)
Express your answer in µM, writing the number without its unit.

Q) Param item = CCCCCCCCCC(=O)O[C@H]1C(C)=C[C@]23C(=O)[C@@H](C=C(CO)[C@@H](O)[C@]12O)[C@H]1[C@@H](C[C@H]3C)C1(C)C ; retrieve measured CC50 at 0.5 h.
A) 117

Q) # get_value(readout='CC50 at 0.5 h', item= C/C=C(\C)C(=O)O[C@H]1C(C)=C[C@]23C(=O)[C@@H](C=C(CO)[C@@H](O)[C@]12O)[C@H]1[C@@H](C[C@H]3C)C1(C)C )
A) 237

Q) Any idea what CC50 at 0.5 h was measured for CC1=C[C@]23C(=O)[C@@H](C=C(CO)[C@@H](O)[C@]2(O)[C@H]1OC(=O)C12C[C@@H]4C[C@@H](C[C@H]1C4)C2)[C@H]1[C@@H](C[C@H]3C)C1(C)C ?
A) 77

Q) Quick one: CC50 at 0.5 h of CC1=C[C@]23C(=O)[C@@H](C=C(CO)[C@@H](O)[C@]2(O)[C@H]1OC(=O)C1CCCCC1)[C@H]1[C@@H](C[C@H]3C)C1(C)C ?
A) 112

---

Experiment: Chemical stability of the compound in aqueous buffer assessed as drug recovery after 16 hrs at pH 7.4 by HPLC analysis
Format: physicochemical
Details: read-out: Drug recovery
// classify: if (remaining at 16 h < 30%) T else F

Q) Problem: For the compound CC1=C[C@]23C(=O)[C@@H](C=C(CO)[C@@H](O)[C@]2(O)[C@H]1OC(=O)/C(C)=C\c1ccc(C)cc1)[C@H]1[C@@H](C[C@H]3C)C1(C)C , is remaining at 16 h under 30%?
A) F

Q) Check if remaining at 16 h falls below 30% for C/C=C(/C(=O)O[C@H]1C(C)=C[C@]23C(=O)[C@@H](C=C(CO)[C@@H](O)[C@]12O)[C@H]1[C@@H](C[C@H]3C)C1(C)C)c1ccccc1 .
A) F

Q) Does CC1=C[C@]23C(=O)[C@@H](C=C(CO)[C@@H](O)[C@]2(O)[C@H]1OC(=O)C1CCCCC1)[C@H]1[C@@H](C[C@H]3C)C1(C)C have remaining at 16 h strictly under 30%?
A) F

Q) remaining at 16 h strictly < 30% for this compound? C/C=C/C(=O)O[C@H]1C(C)=C[C@]23C(=O)[C@@H](C=C(CO)[C@@H](O)[C@]12O)[C@H]1[C@@H](C[C@H]3C)C1(C)C
A) T

Q) Determine whether this compound shows remaining at 16 h lower than 30% (ties excluded): CC1=C[C@]23C(=O)[C@@H](C=C(CO)[C@@H](O)[C@@]24OC(=O)CO[C@@H]14)[C@H]1[C@@H](C[C@H]3C)C1(C)C
A) T

Q) Consider the compound CC#CC(=O)O[C@H]1C(C)=C[C@]23C(=O)[C@@H](C=C(CO)[C@@H](O)[C@]12O)[C@H]1[C@@H](C[C@H]3C)C1(C)C . Is its remaining at 16 h strictly less than 30%?
A) T

Q) Quick check: remaining at 16 h of C=C(C)C(=O)O[C@H]1C(C)=C[C@]23C(=O)[C@@H](C=C(CO)[C@@H](O)[C@]12O)[C@H]1[C@@H](C[C@H]3C)C1(C)C under 30%?
A) T

Q) Item CC1=C[C@]23C(=O)[C@@H](C=C(CO)[C@@H](O)[C@]2(O)[C@H]1O)[C@H]1[C@@H](C[C@H]3C)C1(C)C : remaining at 16 h beneath 30%, strictly?
A) F

Q) Problem: For the compound CC(C)=CC(=O)O[C@H]1C(C)=C[C@]23C(=O)[C@@H](C=C(CO)[C@@H](O)[C@]12O)[C@H]1[C@@H](C[C@H]3C)C1(C)C , is remaining at 16 h under 30%?
A) F

Q) # strict comparison: is reported remaining at 16 h < 30%? input = CC1=C[C@]23C(=O)[C@@H](C=C(CO)[C@@H](O)[C@]2(O)[C@H]1OC(=O)C1(C)CCCCC1)[C@H]1[C@@H](C[C@H]3C)C1(C)C
A) F

Q) For this compound, is remaining at 16 h lower than 30%? CC1=C[C@]23C(=O)[C@@H](C=C(CO)[C@@H](O)[C@]2(O)[C@H]1OC(=O)C12C[C@@H]4C[C@@H](C[C@H]1C4)C2)[C@H]1[C@@H](C[C@H]3C)C1(C)C
A) F

Q) Consider CCCC(=O)O[C@H]1C(C)=C[C@]23C(=O)[C@@H](C=C(CO)[C@@H](O)[C@]12O)[C@H]1[C@@H](C[C@H]3C)C1(C)C . Does its remaining at 16 h lie strictly below 30%?
A) T

Q) Hello, I'm reviewing records and need to know if remaining at 16 h of CO/N=C(/C(=O)O[C@H]1C(C)=C[C@]23C(=O)[C@@H](C=C(CO)[C@@H](O)[C@]12O)[C@H]1[C@@H](C[C@H]3C)C1(C)C)c1ccccc1 is below 30%. Could you check?
A) F

Q) Does this compound meet the criterion remaining at 16 h < 30%? C/C=C(/C)C(=O)O[C@H]1C(C)=C[C@]23C(=O)[C@@H](C=C(CO)[C@@H](OC)[C@]12O)[C@H]1[C@@H](C[C@H]3C)C1(C)C
A) F

Q) In the record for CO/N=C(\C(=O)O[C@H]1C(C)=C[C@]23C(=O)[C@@H](C=C(CO)[C@@H](O)[C@]12O)[C@H]1[C@@H](C[C@H]3C)C1(C)C)c1ccccc1 , is remaining at 16 h less than 30%?
A) F

Q) API: query returns whether the compound falls strictly under 30% in remaining at 16 h. Query: C/C=C(\C)C(=O)O[C@H]1C(C)=C[C@]23C(=O)[C@@H](C=C(CO)[C@@H](O)[C@]12O)[C@H]1[C@@H](C[C@H]3C)C1(C)C
A) F

Q) Identify whether the compound CC1=C[C@]23C(=O)[C@@H](C=C(CO)[C@@H](O)[C@]2(O)[C@H]1OC(=O)C(C)=C(C)C)[C@H]1[C@@H](C[C@H]3C)C1(C)C records remaining at 16 h below 30%.
A) F

Q) Is 30% strictly greater than the compound's reported remaining at 16 h? compound: CC1=C[C@]23C(=O)[C@@H](C=C(CO)[C@@H](O)[C@]2(O)[C@H]1OC(=O)C1CCC1)[C@H]1[C@@H](C[C@H]3C)C1(C)C
A) T

Q) Bench note: check whether C/C=C(/C)C(=O)O[C@H]1C(C)=C[C@@]23C(=O)[C@H]([C@H]4[C@@H](C[C@H]2C)C4(C)C)[C@H](F)C(CO)=C[C@]13O shows remaining at 16 h below 30%
A) F

Q) Hi there! Is remaining at 16 h for C/C=C(/C)C(=O)O[C@H]1C(C)=C[C@]23C(=O)[C@@H](C=C(COC)[C@@H](O)[C@]12O)[C@H]1[C@@H](C[C@H]3C)C1(C)C below 30%, do you know?
A) F
